Each entry below carries its recorded melting point.

# compound, melting point
measured = [
    ("O=C1C(=O)c2ccccc2C2=C1SCC1(CCC(O)CC1)O2 (stereo not given)", "166 to 168 °C"),
    ("CC(C)CCCC(C)C1C=CC2(CC(=O)O)C3=C(CCC12C)C1(C)CCC(O)CC1CC3 (stereo not given)", "221 to 222 °C"),
    ("Nc1ncnc2c1ncn2Cc1nc2c(Cl)cccc2c(=O)n1-c1ccccc1Cl", "273 to 274 °C"),
    ("O=C1CCCSC1C(=O)c1ccc([N+](=O)[O-])cc1Cl (stereo not given)", "59.5 to 62.5 °C"),
    ("CCCCc1nc2c(N)nc(C)c(C)c2n1CC(C)(C)NC(=O)NC1CCCCC1", "128 to 130 °C"),
    ("COc1cc2c(c(O)c1OC)C(Cc1ccc(F)cc1)NCC2 (stereo not given)", "195 to 200 °C"),
    ("O=[N+]([O-])c1cccc2nc3c(nc12)N1CCCCC1CO3 (stereo not given)", "182 to 184 °C"),
    ("CCOC(=O)c1c(N2CCN(C(=O)c3ccco3)CC2)c2cc(F)cnc2[nH]c1=O", "207 °C"),
    ("Cn1c(-c2ccccc2)c(C2=CCC(C(=O)O)CC2)c2ccccc21 (stereo not given)", "171 to 172 °C"),
    ("CC(c1ccccc1)n1c(N)c(C#N)c2c1CCCC2 (stereo not given)", "129 °C"),
]
